Answer each item with its documented EC50.
# Assayed target: PPARδ (Homo sapiens, UniProt Q03181)
# Construct: fused to amino acids 147-441 of PPARδ downstream of CMV promoter; expressed in transfected cells; host or cells: HEK293 cells, transiently transfected with pFACMV-PPARδ using Fugene
# Sequence (Q03181 147-441): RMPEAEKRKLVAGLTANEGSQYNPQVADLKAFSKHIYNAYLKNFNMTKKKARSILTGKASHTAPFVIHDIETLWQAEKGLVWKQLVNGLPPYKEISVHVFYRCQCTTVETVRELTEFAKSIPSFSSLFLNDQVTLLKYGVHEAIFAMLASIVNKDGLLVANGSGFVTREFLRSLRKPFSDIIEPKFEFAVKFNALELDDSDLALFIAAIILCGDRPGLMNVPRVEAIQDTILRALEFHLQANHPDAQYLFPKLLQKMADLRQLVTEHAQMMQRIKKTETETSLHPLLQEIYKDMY
# Method notes: Transactivation assay (PPARδ GAL4 assay) in transiently transfected HEK293 cells
# Type: cell-based
# Setup conditions: luciferase reporter, Table 2

Solved entries:
# Compound, Measured attribute, Value reported
measured = [
    ("CCc1cc(C(=O)c2ccc(OC(F)(F)F)cc2)c(NC(=O)C(C)(C)N2CCC[C@@H]2C(=O)O)s1", "EC50", "100 to 1000 nM"),
    ("CCc1cc(C(=O)c2ccc(OC(F)(F)F)cc2)c(NC(=O)CN2[C@@H](C(=O)O)CC[C@@H]2c2ccccc2)s1", "EC50", "< 100 nM"),
    ("CCc1cc(C(=O)c2ccc(OC(F)(F)F)cc2)c(NC(=O)C(CC)N2CCC[C@@H]2C(=O)O)s1 (stereo partly drawn)", "EC50", "< 100 nM"),
    ("CCc1cc(C(=O)c2ccc(OC(F)(F)F)cc2)c(NC(=O)CN2CCC[C@H]2C(=O)O)s1", "EC50", "1000 to 30000 nM"),
    ("CCc1cc(C(=O)c2cn(C)c3ccc(Cl)cc23)c(NC(=O)CSCC(=O)O)s1", "EC50", "100 to 1000 nM"),
]

Would you be so kind as to report EC50 for each listed record?
1. CCc1cc(C(=O)c2ccc(OC(F)(F)F)cc2)c(NC(=O)COc2ccc(OCC(=O)O)cc2)s1
2. CCc1cc(C(=O)c2ccc(OC(F)(F)F)cc2)c(NC(=O)CSC(C)C(=O)O)s1 (stereo not drawn)
3. CCc1cc(C(=O)c2ccc(OC(F)(F)F)cc2)c(NC(=O)c2ccc(NCC(=O)O)cc2)s1
4. CCc1cc(C(=O)c2ccc(OC(F)(F)F)cc2)c(NC(=O)CN2[C@@H](C(=O)O)CC[C@@H]2C(C)C)s1

1. 1000 to 30000 nM
2. < 100 nM
3. 100 to 1000 nM
4. < 100 nM

List the reported EC50 of each compound below.
1. CCc1cc(C(=O)c2ccc(OC(F)(F)F)cc2)c(NC(=O)C(C)N2[C@@H](C(=O)O)CC[C@@H]2C)s1 (stereo partly drawn)
2. CCc1cc(C(=O)c2ccc(OCC(F)(F)F)cc2)c(NC(=O)CSCC(=O)O)s1
3. CCc1cc(C(=O)c2ccc(OC(F)(F)F)cc2)c(NC(=O)CN2[C@@H](C(=O)O)CC[C@@H]2C)s1 [Example 182]
4. CCc1cc(C(=O)c2ccc(OC(F)(F)F)cc2)c(NC(=O)C(SCC(=O)O)c2ccccc2)s1 (stereo not drawn)
5. CCc1cc(C(=O)c2cc3cc(Cl)ccc3n2C)c(NC(=O)CSCC(=O)O)s1
6. CCc1cc(C(=O)c2ccc(OC(F)(F)F)cc2)c(NC(=O)c2ccc(CCC(=O)O)cc2)s1
7. CCc1cc(C(=O)c2ccc(OC(F)(F)F)cc2)c(NC(=O)CN[C@H](C)C(=O)O)s1

["< 100 nM", "100 to 1000 nM", "< 100 nM", "< 100 nM", "< 100 nM", "100 to 1000 nM", "100 to 1000 nM"]
